Test system: T. cruzi Y strain
Test: Antiparasitic activity on T. cruzi: image-based intracellular amastigote assay in infected U2OS cells
Format: cell-based, Trypanosoma cruzi
Conditions: Trypanosoma cruzi, 72 h; T. cruzi in U2OS host cells, 3 days; number of parasites in host cell cytoplasm, normalized by DMSO and benznidazole controls; read-out: Inhibition norm. para. num. IC50
measurementLabel: IC50 (µM)
Record the value in µM, omitting the unit from your answer.

[[record]]
molecule = "CC1N(C)C(CCCN(O)C(=O)CCNC(=O)CNC(=O)C2COC(c3ccccc3O)=N2)C(=O)N1C1CCCN(O)C1=O (centres unmarked) [D1 (4), madurastatin D1]"
resultunit = "µM"
reportedvalue = 27.2

[[record]]
molecule = "CNC(CCCN(O)C(=O)CCNC(=O)CNC(=O)C1COC(c2ccccc2O)=N1)C(=O)NC1CCCN(O)C1=O (centres unmarked)"
resultunit = "µM"
reportedvalue = 30.8

[[record]]
molecule = "C[C@@H]1N(C)[C@@H](CCCN(O)C(=O)CCNC(=O)CNC(=O)[C@H]2COC(c3ccccc3O)=N2)C(=O)N1[C@H]1CCCN(O)C1=O [33-epi D1 (3), 33-epi-madurastatin D1]"
resultunit = "µM"
reportedvalue = 46.1


Consider the molecule CN1C(CCCN(O)C(=O)CCNC(=O)CNC(=O)C2COC(c3ccccc3O)=N2)C(=O)N(C2CCCN(O)C2=O)C1(C)C (centres unmarked) [D2 (5), madurastatin D2] and give its measured IC50.
8.93
